- system: LPA2 receptor (Homo sapiens, UniProt Q9HBW0)
- Sequence (Q9HBW0 whole entry): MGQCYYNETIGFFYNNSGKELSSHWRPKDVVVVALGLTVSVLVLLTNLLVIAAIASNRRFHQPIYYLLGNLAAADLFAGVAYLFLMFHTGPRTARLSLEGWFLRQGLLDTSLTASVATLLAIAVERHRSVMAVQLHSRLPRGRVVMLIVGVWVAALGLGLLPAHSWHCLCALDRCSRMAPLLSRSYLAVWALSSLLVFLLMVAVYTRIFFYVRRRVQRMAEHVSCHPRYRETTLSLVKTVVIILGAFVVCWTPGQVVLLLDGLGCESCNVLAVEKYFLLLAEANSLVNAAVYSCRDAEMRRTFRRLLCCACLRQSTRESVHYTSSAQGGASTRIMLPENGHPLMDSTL
- measurementDescription: LPA2 receptor agonist activity (EC50, Emax)
- Assay type: cell-based
- particulars: Table 2; value in parentheses
Reported values of LPA2 (Emax) for individual entries
Form rule: numeric answer, no unit written next to it.

Example cases with answers are listed next.
>>> recordedvalue("CCCCCCCC=CCCCCCCCC[C@@H]1OC[C@H](COP([O-])(O)=S)O1.[K+]")
85
>>> recordedvalue("CCCCCCCC=CCCCCCCCC[C@H]1OC[C@H](COP([O-])(O)=S)O1.[K+]")
77
>>> recordedvalue("CCCCCCCC=CCCCCCCCC[C@@H]1OC[C@@H](COP([O-])(O)=S)O1.[K+]")
72
>>> recordedvalue("CCCCCCCC=CCCCCCCCC[C@H]1OC[C@@H](COP([O-])(O)=S)O1.[K+]")
87

stdin: Name the recorded LPA2 (Emax) of the molecule listed here: "CCCCCCCC=CCCCCCCCC[C@@H]1OC[C@H](COP(=O)([O-])O)O1.[K+]"
stdout: 42

stdin: Name the recorded LPA2 (Emax) of the molecule listed here: CC=CCC=CCC=CCCCCCCCCC1OCC(COP(=O)(O)O)O1.[K] (stereo not shown)
stdout: 51

stdin: Name the recorded LPA2 (Emax) of the molecule listed here: CCCCCCCC=CCCCCCCCCC1OCC(COP(O)(O)=S)O1.[K] (stereo not shown)
stdout: 87
